This section presents compounds with their documented pIC50 values.
Molecular target: N-terminally GST-tagged mTOR (truncated version: amino acids 1360-2549) (Homo sapiens, UniProt P42345)
Construct: truncated version: amino acids 1360-2549
Sequence (P42345 1360-2549): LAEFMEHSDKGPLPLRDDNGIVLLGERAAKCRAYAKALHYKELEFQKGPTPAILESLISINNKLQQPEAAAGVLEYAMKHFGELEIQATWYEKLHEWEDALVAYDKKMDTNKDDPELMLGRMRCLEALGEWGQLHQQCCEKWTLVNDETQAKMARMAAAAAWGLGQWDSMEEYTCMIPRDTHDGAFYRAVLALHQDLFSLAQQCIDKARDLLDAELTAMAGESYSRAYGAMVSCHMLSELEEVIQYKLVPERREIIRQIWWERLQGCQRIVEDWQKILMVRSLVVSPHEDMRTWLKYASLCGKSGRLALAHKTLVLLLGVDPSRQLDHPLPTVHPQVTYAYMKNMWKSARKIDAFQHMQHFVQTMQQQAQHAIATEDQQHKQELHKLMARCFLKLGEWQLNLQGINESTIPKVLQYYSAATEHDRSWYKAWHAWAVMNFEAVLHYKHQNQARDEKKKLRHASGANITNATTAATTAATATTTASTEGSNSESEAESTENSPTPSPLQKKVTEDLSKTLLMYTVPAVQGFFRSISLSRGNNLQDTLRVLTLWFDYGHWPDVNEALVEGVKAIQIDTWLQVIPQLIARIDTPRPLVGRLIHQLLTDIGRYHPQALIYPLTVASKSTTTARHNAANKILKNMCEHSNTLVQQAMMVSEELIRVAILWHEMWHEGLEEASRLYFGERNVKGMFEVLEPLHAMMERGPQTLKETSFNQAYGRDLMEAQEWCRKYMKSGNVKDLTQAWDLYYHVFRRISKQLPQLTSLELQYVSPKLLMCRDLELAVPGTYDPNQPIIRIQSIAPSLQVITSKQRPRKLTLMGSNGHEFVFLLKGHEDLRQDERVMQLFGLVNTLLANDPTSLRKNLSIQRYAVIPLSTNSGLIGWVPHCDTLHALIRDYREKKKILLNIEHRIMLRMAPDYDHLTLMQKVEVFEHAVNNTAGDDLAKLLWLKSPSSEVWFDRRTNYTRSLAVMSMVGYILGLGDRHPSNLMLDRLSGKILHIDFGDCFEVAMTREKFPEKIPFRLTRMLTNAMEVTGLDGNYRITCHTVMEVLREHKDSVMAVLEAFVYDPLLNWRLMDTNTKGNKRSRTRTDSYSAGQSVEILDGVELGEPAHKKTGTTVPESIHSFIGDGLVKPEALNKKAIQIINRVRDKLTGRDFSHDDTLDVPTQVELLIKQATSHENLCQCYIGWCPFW
Assay: In vitro mTOR binding assay (LanthaScreen TR-FRET)
Settings: 3 nM GST-mTOR, 10 nM Tracer 314, 30 min at RT
pIC50: −log10 of the molar value.

| SMILES ENTRY | pIC50 |
| --- | --- |
| Nc1ncc(-c2nc(N3CCOCC3)nc(N3CCSCC3)n2)c(C(F)(F)F)n1 | 6.40 |
| Nc1cc(C(F)(F)F)c(-c2nc(N3CCOCC3)nc(N3CCSCC3)n2)cn1 | 6.93 |
| Nc1ncc(-c2nc(N3CCNCC3)nc(N3CCOCC3)n2)c(C(F)(F)F)n1 | 5.55 |
| Nc1cc(C(F)(F)F)c(-c2nc(N3CCNCC3)nc(N3CCOCC3)n2)cn1 | 6.10 |

* * *

Test system: pS6 S235/S236 in A2058 cells
Test: In-cell Western blot, pS6 S235/S236
Assay type: cell-based
Settings: Homo sapiens, treated for 1 hour, normalized to α-tubulin
pIC50: −log10 of the molar value.
This section presents compounds with their documented pIC50 values.
QUANTITY KIND: pIC50

| COMPOUND | STUDY TARGET | QUANTITY KIND | TEST RESULT |
| --- | --- | --- | --- |
| C[C@@H]1COC[C@H](C)N1c1nc(-c2cnc(N)cc2C(F)F)nc(N2[C@H](C)COC[C@@H]2C)n1 [Compound 40] | pS6 S235/S236 in A2058 cells | pIC50 | 6.80 |
| C[C@H]1COCCN1c1nc(-c2cnc(N)cc2C(F)F)cc(N2CCOCC2)n1 [Compound 31] | pS6 S235/S236 in A2058 cells | pIC50 | 6.91 |
| C[C@H]1COCCN1c1nc(-c2cnc(N)cc2C(F)(F)F)nc(N2CCOCC2)n1 [reference compound] | pS6 S235/S236 in A2058 cells | pIC50 | 7.05 |
| C[C@H]1COCCN1c1nc(-c2cnc(N)nc2C(F)F)nc(N2CCOCC2)n1 [Compound 9] | pS6 S235/S236 in A2058 cells | pIC50 | 7.14 |
| C[C@@H]1COCCN1c1nc(-c2cnc(N)cc2C(F)F)nc(N2CCOC[C@H]2C)n1 [Compound 41] | pS6 S235/S236 in A2058 cells | pIC50 | 6.58 |
| C[C@H]1COCCN1c1cc(-c2cnc(N)cc2C(F)F)nc(N2CCOCC2)n1 [Compound 27] | pS6 S235/S236 in A2058 cells | pIC50 | 6.12 |
| C[C@H]1COCCN1c1nc(-c2cnc(N)nc2C(F)(F)F)nc(N2CCOCC2)n1 [reference compound] | pS6 S235/S236 in A2058 cells | pIC50 | 6.79 |
| C[C@H]1COCCN1c1nc(-c2cnc(N)nc2C(F)F)cc(N2CCOCC2)n1 [Compound 32] | pS6 S235/S236 in A2058 cells | pIC50 | 6.41 |
| C[C@H]1COC[C@H](C)N1c1nc(-c2cnc(N)cc2C(F)F)nc(N2[C@@H](C)COC[C@@H]2C)n1 [Compound 83] | pS6 S235/S236 in A2058 cells | pIC50 | 6.53 |

* * *

Experiment: in vivo
Details: B57BL/6J, mouse, po, 50 mg/kg

| SMILES ENTRY | MEASURE UNIT | Tmax |
| --- | --- | --- |
| Nc1cc(C(F)F)c(-c2nc(N3C4CCC3COC4)nc(N3C4CCC3COC4)n2)cn1 | min | 30 |

* * *

Assay: PK in B57BL/6J mice
Details: B57BL/6J, mouse, in vivo, po, 50 mg/kg, half-life in mice (estimated), mice, single oral 50 mg/kg

| SMILES ENTRY | half-life |
| --- | --- |
| C[C@H]1COCCN1c1nc(-c2cnc(N)cc2C(F)F)nc(N2CCOCC2)n1 | 4.7 to 4.8 h |

* * *

Assay: in vivo
Settings: B57BL/6J, mouse, po, 50 mg/kg, Brain t1/2

| SMILES ENTRY | half-life [h] |
| --- | --- |
| Nc1cc(C(F)F)c(-c2nc(N3C4CCC3COC4)nc(N3C4CCC3COC4)n2)cn1 | 5 |

* * *

System: pPKB S473 in A2058 cells
Test: In-cell Western blot, pPKB S473
Assay type: cell-based
Settings: Homo sapiens, treated for 1 hour, normalized to α-tubulin
This section presents compounds with their documented IC50 values.

| COMPOUND | MEASURE UNIT | IC50 |
| --- | --- | --- |
| C[C@H]1COCCN1c1nc(-c2cnc(N)nc2C(F)(F)F)nc(N2CCOCC2)n1 [reference compound] | µM | 0.091 |
| Nc1cc(C(F)(F)F)c(-c2nc(N3CCOCC3)cc(N3CCOCC3)n2)cn1 [reference compound] | µM | 0.555 |
| C[C@H]1COCCN1c1nc(-c2cnc(N)nc2C(F)F)nc(N2CCOCC2)n1 | µM | 0.035 |
| C[C@H]1COCCN1c1nc(-c2cnc(N)cc2C(F)F)cc(N2CCOCC2)n1 | µM | 0.146 |
| C[C@H]1COCCN1c1nc(-c2cnc(N)cc2C(F)F)nc(N2CCOCC2)n1 | µM | 0.074 |

* * *

Test: in vivo
Conditions: B57BL/6J, mouse, half-life

| SMILES ENTRY | half-life |
| --- | --- |
| Nc1cc(C(F)F)c(-c2nc(N3C4CCC3COC4)nc(N3C4CCC3COC4)n2)cn1 | 300 min |

* * *

Assay: PK in Sprague Dawley (SD) rats
Format: in vivo, rat
Settings: female, Sprague-Dawley, plasma; rat, po, 10 mg/kg, single
Protocol: A single oral administration of cpd. 3, 10 mg/kg was given to female SD rats in a vehicle consisting of DMSO/HPBCD 20% (10/90). Animals were housed in controlled environment and enclosures provided sterile and adequate space with bedding material, food and water, environmental and social enrichment (group housing). […] Compound concentrations were detected by HPLC-MS/MS. […]

| SMILES ENTRY | MEASURE UNIT | Cmax |
| --- | --- | --- |
| Nc1cc(C(F)F)c(-c2nc(N3C4CCC3COC4)nc(N3C4CCC3COC4)n2)cn1 | ng/mL | 1400 |

* * *

Experiment: PK in Sprague Dawley (SD) rats
Assay type: in vivo, rat
Details: female, Sprague-Dawley, plasma; rat, po, 10 mg/kg, single
QUANTITY KIND: AUC (ng·h/mL)

| SMILES ENTRY | TEST RESULT |
| --- | --- |
| Nc1cc(C(F)F)c(-c2nc(N3C4CCC3COC4)nc(N3C4CCC3COC4)n2)cn1 | 400 |

* * *

Assay: PK in Sprague Dawley (SD) rats
Type: in vivo, rat
Conditions: female, Sprague-Dawley, plasma; rat, po, 10 mg/kg, single; read-out: Plasma Tmax
QUANTITY KIND: Tmax (min)

| SMILES ENTRY | QUANTITY KIND | MEASURE UNIT | TEST RESULT |
| --- | --- | --- | --- |
| Nc1cc(C(F)F)c(-c2nc(N3C4CCC3COC4)nc(N3C4CCC3COC4)n2)cn1 | Tmax | min | 30 |

* * *

System: pPKB S473 in A2058 cells
Experiment: In-cell Western blot, pPKB S473
Assay type: cell-based
Conditions: treated for 1 hour, normalized to α-tubulin
pIC50: −log10 of the molar value.
QUANTITY KIND: pIC50

| SMILES ENTRY | TEST RESULT |
| --- | --- |
| Nc1ncc(-c2nc(N3CCNCC3)nc(N3CCOCC3)n2)c(C(F)F)n1 | 7.43 |
| Nc1cc(C(F)F)c(-c2nc(N3CCNCC3)nc(N3CCOCC3)n2)cn1 | 6.66 |

* * *

Experiment: in vivo
Conditions: B57BL/6J, mouse, po, 50 mg/kg, Plasma t1/2

| SMILES ENTRY | half-life, h |
| --- | --- |
| Nc1cc(C(F)F)c(-c2nc(N3C4CCC3COC4)nc(N3C4CCC3COC4)n2)cn1 | 5.3 |

* * *

System: pPKB S473 in A2058 cells
Test: In-cell Western blot, pPKB S473
Format: cell-based
Conditions: Homo sapiens, treated for 1 hour, normalized to α-tubulin

| MOLECULE | IC50 |
| --- | --- |
| C[C@@H]1COCCN1c1nc(-c2cnc(N)cc2C(F)F)nc(N2CCOC[C@H]2C)n1 [Compound 41] | 0.436 µM |
| Nc1cc(C(F)F)c(-c2cc(N3CCOCC3)nc(N3CCOCC3)n2)cn1 [Compound 16] | 0.207 µM |
| C[C@@H]1COC[C@H](C)N1c1nc(-c2cnc(N)cc2C(F)F)nc(N2[C@H](C)COC[C@@H]2C)n1 [Compound 40] | 0.252 µM |
| C[C@H]1COC[C@H](C)N1c1nc(-c2cnc(N)cc2C(F)F)nc(N2[C@@H](C)COC[C@@H]2C)n1 [Compound 83] | 0.379 µM |
| C[C@H]1COCCN1c1nc(-c2cnc(N)cc2C(F)(F)F)nc(N2CCOCC2)n1 [reference compound] | 0.196 µM |
| C[C@H]1COCCN1c1nc(-c2cnc(N)nc2C(F)F)cc(N2CCOCC2)n1 [Compound 32] | 0.1 µM |
| Nc1cc(C(F)F)c(-c2nc(N3CCOCC3)cc(N3CCOCC3)n2)cn1 [Compound 18] | 0.243 µM |
| C[C@H]1COCCN1c1cc(-c2cnc(N)cc2C(F)F)nc(N2CCOCC2)n1 [Compound 27] | 0.614 µM |

Data origin: patent US11878972B2
